Parameter: IC50. Scope: all listed entries.
Target: Human recombinant PDE4 (Homo sapiens (Human), UniProt Q08499)
Sequence (Q08499 other isoform, or with tags, fused parts or gaps): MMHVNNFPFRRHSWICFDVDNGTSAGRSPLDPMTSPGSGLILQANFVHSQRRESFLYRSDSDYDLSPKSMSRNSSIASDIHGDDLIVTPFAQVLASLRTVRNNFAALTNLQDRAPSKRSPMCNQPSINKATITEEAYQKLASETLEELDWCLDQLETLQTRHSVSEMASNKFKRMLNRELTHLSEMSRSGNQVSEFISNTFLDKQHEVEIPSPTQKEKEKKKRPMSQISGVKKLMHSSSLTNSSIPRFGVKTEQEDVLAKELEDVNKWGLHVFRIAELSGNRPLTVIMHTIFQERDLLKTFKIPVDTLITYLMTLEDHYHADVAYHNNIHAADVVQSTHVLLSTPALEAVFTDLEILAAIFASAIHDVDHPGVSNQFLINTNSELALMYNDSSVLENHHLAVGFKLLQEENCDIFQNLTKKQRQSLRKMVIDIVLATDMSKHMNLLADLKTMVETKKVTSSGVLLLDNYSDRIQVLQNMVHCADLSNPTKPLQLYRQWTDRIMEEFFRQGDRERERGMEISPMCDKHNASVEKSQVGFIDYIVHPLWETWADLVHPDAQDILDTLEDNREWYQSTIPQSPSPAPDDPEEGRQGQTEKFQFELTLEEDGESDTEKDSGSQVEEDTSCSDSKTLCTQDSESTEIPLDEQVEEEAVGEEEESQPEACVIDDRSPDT
Test: PDE4 assay (SPA, cAMP cleavage)
Details: human recombinant PDE4, 1 hour incubation, cAMP 1×10^-5M

input.smiles	target.under.test	units	IC50
COc1ccc(C(=O)Cc2c(Cl)cncc2Cl)n2nc(C3(C(=O)NC4CCCC4)CC3)nc12	Human recombinant PDE4 (Homo sapiens (Human), UniProt Q08499)	nM	0.1
COc1ccc(C(=O)Cc2c(Cl)cncc2Cl)n2ncnc12	Human recombinant PDE4 (Homo sapiens (Human), UniProt Q08499)	nM	134
COc1ccc(C(=O)Cc2c(Cl)cncc2Cl)n2nc(C3(C(=O)NCC(C)(C)C)CC3)nc12	Human recombinant PDE4 (Homo sapiens (Human), UniProt Q08499)	nM	0.2
COc1ccc(C(=O)Cc2c(Cl)cncc2Cl)n2nc(C3(C(=O)NCc4ccncc4)CC3)nc12	Human recombinant PDE4 (Homo sapiens (Human), UniProt Q08499)	nM	0.4
COc1ccc(C(=O)Cc2c(Cl)cncc2Cl)n2nc(C3(C(=O)NCc4ccccc4)CC3)nc12	Human recombinant PDE4 (Homo sapiens (Human), UniProt Q08499)	nM	0.5
COc1ccc(C(=O)Cc2ccncc2Br)n2nc(C3(CO)CC3)nc12	Human recombinant PDE4 (Homo sapiens (Human), UniProt Q08499)	nM	52
COc1ccc(C(=O)Cc2c(Cl)cncc2Cl)n2nc(C3(CNCc4ccccc4)CC3)nc12	Human recombinant PDE4 (Homo sapiens (Human), UniProt Q08499)	nM	8
COc1ccc(C(=O)Cc2c(Cl)cncc2Cl)n2nc(C3(C(=O)O)CC3)nc12	Human recombinant PDE4 (Homo sapiens (Human), UniProt Q08499)	nM	55
